viability, T/C values, listed per item
tested on: 885724-159-R-J1-PDC complex spheroid viability; assay: Anticancer human tumor 885724-159-R-J1-PDC patient-derived pancreatic adenocarcinoma cell line growth inhibition [POLQ]; conditions: second compound 10 µM; first compound 0.0316 µM; active compounds read low;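 also: spheroids exposed to compounds for 7 days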
Reply with just the number (in %).

Past entries and their recorded results:
- CC1COCCN1c1cc(C2(S(C)(=N)=O)CC2)nc(-c2ccnc3[nH]ccc23)n1 (stereo unspecified) + Nc1ccc(C#CCN(C(=O)Cc2ncc(C(F)(F)F)cc2C(F)(F)F)c2ccc(F)cc2)nn1: 95.6
- CCc1cc2c(N3CCc4c(cc(Cn5ccnc5)cc4-c4cn(C)nc4C(F)(F)F)C3=O)cc(C)nc2c(OC)n1 + Nc1ccc(C#CCN(C(=O)Cc2ncc(C(F)(F)F)cc2C(F)(F)F)c2ccc(F)cc2)nn1: 88
- C=CCn1c(=O)c2cnc(Nc3ccc(N4CCN(C)CC4)cc3)nc2n1-c1cccc(C(C)(C)O)n1 + Cc1cccc(N(C)C(=O)C2C(O)CCN2c2nc(C)cc(C(F)(F)F)c2C#N)c1: 98.2
- CC(C)n1c(=O)n(C)c2cnc3cc(F)c(-c4ccc(OCCCN5CCCCC5)nc4)cc3c21 + Cc1cccc(N(C)C(=O)C2C(O)CCN2c2nc(C)cc(C(F)(F)F)c2C#N)c1: 106
- COc1cccc2c1C(=O)c1c(O)c3c(c(O)c1C2=O)CC(O)(C(=O)CO)CC3OC1CC(N)C(O)C(C)O1 (stereo unspecified) + Nc1ccc(C#CCN(C(=O)Cc2ncc(C(F)(F)F)cc2C(F)(F)F)c2ccc(F)cc2)nn1: 70.8

Check the records and state viability, T/C for CCc1c2c(nc3ccc(O)cc13)-c1cc3c(c(=O)n1C2)COC(=O)[C@]3(O)CC + Nc1ccc(C#CCN(C(=O)Cc2ncc(C(F)(F)F)cc2C(F)(F)F)c2ccc(F)cc2)nn1
53.6

Check the records and state viability, T/C for CCc1cc2c(N3CCc4c(cc(Cn5ccnc5)cc4-c4cn(C)nc4C(F)(F)F)C3=O)ccnc2c(OC)n1 + Cc1cccc(N(C)C(=O)C2C(O)CCN2c2nc(C)cc(C(F)(F)F)c2C#N)c1
92.8

Check the records and state viability, T/C for COc1ccc([C@@H](O)c2cc(-c3ncnc4cc(N5CCOCC5)ccc34)c(F)cc2Cl)nn1 + COC1C(OC(N)=O)C(O)C(Oc2ccc3c(O)c(NC(=O)c4ccc(O)c(CC=C(C)C)c4)c(=O)oc3c2C)OC1(C)C
108

Check the records and state viability, T/C for C#Cc1c(F)ccc2cc(O)cc(-c3ncc4c(N5CC6CCC(C5)N6)nc(OCC56CCCN5CC(F)C6)nc4c3F)c12 (stereo unspecified) + COC1C(OC(N)=O)C(O)C(Oc2ccc3c(O)c(NC(=O)c4ccc(O)c(CC=C(C)C)c4)c(=O)oc3c2C)OC1(C)C
99.4

Check the records and state viability, T/C for CNCc1ccc(-c2[nH]c3cc(F)cc4c3c2CCNC4=O)cc1 + Cc1cccc(N(C)C(=O)C2C(O)CCN2c2nc(C)cc(C(F)(F)F)c2C#N)c1
97

Check the records and state viability, T/C for Cn1ncnc1[C@H]1c2n[nH]c(=O)c3cc(F)cc(c23)N[C@@H]1c1ccc(F)cc1 + Cc1cccc(N(C)C(=O)C2C(O)CCN2c2nc(C)cc(C(F)(F)F)c2C#N)c1
94.1

Check the records and state viability, T/C for CNCc1ccc(-c2[nH]c3cc(F)cc4c3c2CCNC4=O)cc1 + Nc1ccc(C#CCN(C(=O)Cc2ncc(C(F)(F)F)cc2C(F)(F)F)c2ccc(F)cc2)nn1
92

Check the records and state viability, T/C for COc1cc2cc(C(=O)CCC(=O)O)sc2cc1OC + Cc1cccc(N(C)C(=O)C2C(O)CCN2c2nc(C)cc(C(F)(F)F)c2C#N)c1
101

Check the records and state viability, T/C for CC(C)n1c(=O)n(C)c2cnc3cc(F)c(-c4ccc(OCCCN5CCCCC5)nc4)cc3c21 + Nc1ccc(C#CCN(C(=O)Cc2ncc(C(F)(F)F)cc2C(F)(F)F)c2ccc(F)cc2)nn1
106

Check the records and state viability, T/C for CCCS(=O)(=O)Nc1ccc(F)c(C(=O)c2c[nH]c3ncc(-c4ccc(Cl)cc4)cc23)c1F + COC1C(OC(N)=O)C(O)C(Oc2ccc3c(O)c(NC(=O)c4ccc(O)c(CC=C(C)C)c4)c(=O)oc3c2C)OC1(C)C
111

Check the records and state viability, T/C for COc1cc2cc(C(=O)CCC(=O)O)sc2cc1OC + COC1C(OC(N)=O)C(O)C(Oc2ccc3c(O)c(NC(=O)c4ccc(O)c(CC=C(C)C)c4)c(=O)oc3c2C)OC1(C)C
96.8

Check the records and state viability, T/C for COc1cccc(OCCCN)c1-c1cc(Nc2cnc(C#N)cn2)n[nH]1 + Nc1ccc(C#CCN(C(=O)Cc2ncc(C(F)(F)F)cc2C(F)(F)F)c2ccc(F)cc2)nn1
46.1

Check the records and state viability, T/C for Nc1ccn(C2OC(CO)C(O)C2(F)F)c(=O)n1 (stereo unspecified) + Nc1ccc(C#CCN(C(=O)Cc2ncc(C(F)(F)F)cc2C(F)(F)F)c2ccc(F)cc2)nn1
96

Check the records and state viability, T/C for COc1cccc2c1C(=O)c1c(O)c3c(c(O)c1C2=O)CC(O)(C(=O)CO)CC3OC1CC(N)C(O)C(C)O1 (stereo unspecified) + Cc1cccc(N(C)C(=O)C2C(O)CCN2c2nc(C)cc(C(F)(F)F)c2C#N)c1
72.7

Check the records and state viability, T/C for CCc1c2c(nc3ccc(O)cc13)-c1cc3c(c(=O)n1C2)COC(=O)[C@]3(O)CC + COC1C(OC(N)=O)C(O)C(Oc2ccc3c(O)c(NC(=O)c4ccc(O)c(CC=C(C)C)c4)c(=O)oc3c2C)OC1(C)C
48.9

Check the records and state viability, T/C for CC[C@@]1(O)C(=O)OCc2c1cc1n(c2=O)Cc2cc3c(CN(C)C)c(O)ccc3nc2-1 + Nc1ccc(C#CCN(C(=O)Cc2ncc(C(F)(F)F)cc2C(F)(F)F)c2ccc(F)cc2)nn1
81.1
